In this section, each of the molecules is paired with its reported EC50.
- procedureDetails: RSV-A Assay: The description is Japanese.
quantity: EC50

- COC[C@H]1CCCN1c1sc(C(F)(F)F)nc1-c1nnc(N[C@H]2N=C(c3ccccc3)c3ccccc3NC2=O)o1: > 800 nM
- COC(=O)c1nc(-c2ccccn2)sc1Cl: < 400 nM
- COCCOc1ccccc1-c1nnc(NC2N=C(c3ccccc3)c3ccccc3NC2=O)o1 (centres undefined): > 800 nM
- O=C1Nc2ccccc2C(c2ccccc2)=NC1Nc1nnc(-c2ccccc2C2=CCOCC2)o1 (centres undefined): > 800 nM
- O=C1Nc2ccccc2C(c2ccccc2)=NC1Nc1nnc(-c2ccccc2-n2cccn2)o1 (centres undefined): > 800 nM
- O=C1Nc2ccccc2C(c2ccccc2)=NC1Nc1nnc(-c2ccccc2N2CCS(=O)(=O)CC2)o1 (centres undefined): > 800 nM

* * *

- procedureDetails: RSV-A Assay: The description is Japanese.
pEC50: −log10 of the molar value.
In this section, each of the compounds is paired with its reported pEC50.
quantity: pEC50

• COCCNc1sc(C(F)(F)F)nc1-c1nnc(N[C@H]2N=C(c3ccccc3)c3ccccc3NC2=O)o1 = > 6.40
• CCc1nc(-c2nnc(N[C@H]3N=C(c4ccccc4)c4ccccc4NC3=O)o2)c(N2CCOCC2)s1 = > 6.40
• O=C1Nc2ccccc2C(c2ccccc2)=NC1Nc1cc(-c2ccccc2)ncn1 (centres undefined) = < 6.10
• CCOC(=O)c1ncc(C(F)(F)F)cc1-c1ccncc1 = < 6.10
• Cc1nc(-c2nnc(N[C@H]3N=C(c4ccccc4)c4ccccc4NC3=O)o2)c(Cl)s1 = < 6.10
• O=C1Nc2ccccc2C(c2ccccc2)=N[C@@H]1Nc1nnc(-c2cnc(C(F)(F)F)nc2N2CC3CCC(C2)O3)o1 = < 6.10
• O=C1Nc2ccccc2C(c2ccccc2)=N[C@@H]1Nc1nnc(-c2ncsc2N2CCOCC2)o1 = > 6.40
• O=C1Nc2ccccc2C(c2ccccc2)=NC1Nc1nnc(C23CCN(CC2)CC3)o1 (centres undefined) = < 6.10
• Cn1cc(N2CCOCC2)c(-c2nnc(N[C@H]3N=C(c4ccccc4)c4ccccc4NC3=O)o2)n1 = > 6.40

* * *

- procedureDetails: RSV-A Assay: The description is Japanese.
quantity: EC50

* COC(=O)c1ncc(C#N)cc1N1CCOCC1 | < 400 nM
* CC(F)(F)c1nc(-c2nnc(N[C@H]3N=C(c4ccccc4)c4ccccc4NC3=O)o2)c(N2CCOCC2)s1 | < 400 nM
* O=C1Nc2ccccc2C(c2ccccc2)=NC1Nc1nnc(-c2nccs2)o1 (centres undefined) | > 800 nM
* COCCn1ccnc1-c1nnc(N[C@H]2N=C(c3ccccc3)c3ccccc3NC2=O)o1 | > 800 nM
* COCC1(Nc2cc(C(F)(F)F)cnc2-c2nnc(N[C@H]3N=C(c4ccccc4)c4ccccc4NC3=O)o2)CC1 | > 800 nM
* COC(=O)c1cc(C2CC2)sc1N1CCOCC1 | < 400 nM
* COC[C@H]1C[C@@H]1c1cc(C(F)(F)F)cnc1-c1nnc(N[C@H]2N=C(c3ccccc3)c3ccccc3NC2=O)o1 | > 800 nM
* O=C1Nc2ccccc2C(c2ccccc2)=N[C@@H]1Nc1nnc(-c2ncc(C(F)(F)F)cc2N2CCC(O)CC2)o1 | > 800 nM
* N#Cc1ccc(-c2ccc(NC3N=C(c4ccccc4)c4ccccc4NC3=O)nn2)cc1 (centres undefined) | < 400 nM
* N#Cc1ccc(-c2nnc(N[C@H]3N=C(c4ccccc4)c4ccccc4NC3=O)o2)c(N2CCOCC2)c1 | < 400 nM
* COC(=O)c1nc(C)sc1N1CCOCC1 | < 400 nM
* CCOC(=O)c1ccc(C2CC2)nc1Cl | < 400 nM
* O=C1Nc2ccccc2C(c2ccccc2)=N[C@H]1Nc1nnc(-c2ccc(N3CCOCC3)cc2F)o1 | > 800 nM
* O=C1Nc2ccccc2C(c2ccccc2)=N[C@@H]1Nc1nnc(-c2ccc(N3C4CCC3COC4)cc2Cl)o1 | > 800 nM
* CCOC(=O)c1nc(-c2ccc(C(F)(F)F)nc2)sc1N1CCOCC1 | < 400 nM
* O=C1Nc2ccccc2C(c2ccccc2)=NC1Nc1nc2ccc(F)cc2o1 (centres undefined) | > 800 nM
* CS(=O)(=O)c1cnc(-c2nnc(N[C@H]3N=C(c4ccccc4)c4ccccc4NC3=O)o2)c(N2CCOCC2)c1 | > 800 nM
* C[C@H]1CN(c2cc(C(F)(F)F)cnc2-c2nnc(N[C@H]3N=C(c4ccccc4)c4ccccc4NC3=O)o2)CCO1 | < 400 nM

* * *

- procedureDetails: RSV-A Assay: The description is Japanese.
quantity: EC50

- O=C1Nc2ccccc2C(c2ccccc2)=N[C@@H]1Nc1nnc(-c2ncc(C3CC3)cc2N2CCOCC2)o1: < 400 nM
- Cn1nccc1-c1nnc(NC2N=C(c3ccccc3)c3ccccc3NC2=O)o1 (centres undefined): > 800 nM
- COCCNc1cc(C(F)(F)F)cnc1-c1nnc(N[C@H]2N=C(c3ccccc3)c3ccccc3NC2=O)o1: < 400 nM
- COc1cccc(-c2nnc(NC3N=C(c4ccccc4)c4ccccc4NC3=O)o2)n1 (centres undefined): < 400 nM
- O=C1Nc2ccccc2C(c2ccccc2)=N[C@@H]1Nc1nnc(-c2ncc(C3CCCCC3)cc2N2CCOCC2)o1: < 400 nM
- CN(c1nnc(-c2ccc(F)cc2)o1)C1N=C(c2ccccc2)c2ccccc2NC1=O (centres undefined): > 800 nM
- Cn1c(N2CCOCC2)c(-c2nnc(N[C@H]3N=C(c4ccccc4)c4ccccc4NC3=O)o2)ccc1=O: < 400 nM

* * *

In this section, each of the compounds is paired with its reported EC50.
- procedureDetails: RSV-A Assay: The description is Japanese.
quantity: EC50

- O=C1Nc2ccccc2C(c2ccccc2)=N[C@@H]1Nc1nnc(-c2ncc(C(F)(F)F)cc2N2CC3CCC(C2)O3)o1: < 400 nM
- O=C1Nc2ccccc2C(c2ccccc2)=N[C@@H]1Nc1nnc(-c2cc(C(F)(F)F)sc2N2CCOCC2)o1: < 400 nM
- O=C1OCCc2cc(C(F)(F)F)cnc21: > 800 nM
- COC[C@@H]1C[C@H]1c1cc(C(F)(F)F)cnc1-c1nnc(N[C@H]2N=C(c3ccccc3)c3ccccc3NC2=O)o1: > 800 nM
- CN1CCc2nc(-c3nnc(NC4N=C(c5ccccc5)c5ccccc5NC4=O)o3)sc2C1 (stereo not drawn): > 800 nM
- O=C1Nc2ccccc2C(c2ccccc2)=NC1Nc1cc(Oc2ccccc2)ncn1 (stereo not drawn): > 800 nM
- O=C1Nc2ccccc2C(c2ccccc2)=NC1Nc1nnc(-c2ccc(C(F)(F)F)cn2)o1 (stereo not drawn): > 800 nM
- O=C1Nc2ccccc2C(c2ccccc2)=NC1Nc1nnc(-c2cccnc2N2C[C@H]3COC[C@H]3C2)o1 (stereo partly drawn): > 800 nM
- CN1CCN(c2ncccc2-c2nnc(NC3N=C(c4ccccc4)c4ccccc4NC3=O)o2)CC1 (stereo not drawn): > 800 nM
- O=C1Nc2ccccc2C(c2ccccc2)=NC1Nc1nnc(C2CCNCC2)o1 (stereo not drawn): > 800 nM
- Cc1ccc(-c2nnc(N[C@H]3N=C(c4ccccc4)c4ccccc4NC3=O)o2)c(N2C3CCC2COC3)n1: < 400 nM
- C[C@@H]1COCCN1c1ncccc1-c1nnc(NC2N=C(c3ccccc3)c3ccccc3NC2=O)o1 (stereo partly drawn): < 400 nM
- O=C1Nc2ccccc2C(c2ccccc2)=NC1Nc1nnc(-c2ccncc2)[nH]1 (stereo not drawn): > 800 nM
- O=C1Nc2ccccc2C(c2ccccc2)=N[C@@H]1Nc1nnc(-c2cnc(-n3cncn3)nc2N2CCOCC2)o1: > 800 nM
- Cc1nc(-c2nnc(N[C@H]3N=C(c4ccccc4)c4ccccc4NC3=O)o2)c(C2CCOCC2)s1: < 400 nM
- O=C1Nc2ccccc2C(c2ccccc2)=NC1Nc1nnc(-c2ccc(-n3cccn3)cc2N2CCOCC2)o1 (stereo not drawn): < 400 nM
- N#Cc1cccc(C2=NC(Nc3nnc(-c4ccc(F)cc4)o3)C(=O)Nc3ccccc32)c1 (stereo not drawn): > 800 nM
- O=C1Nc2ccccc2C(c2ccccc2)=NC1Nc1nc(-c2ccccc2)cs1 (stereo not drawn): > 800 nM
- COc1ccc(-c2nnc(NC3N=C(c4ccccc4)c4ccccc4NC3=O)o2)cn1 (stereo not drawn): < 400 nM
- O=C1Nc2ccccc2C(c2ccccc2)=NC1Nc1nnc(-c2cccc(C(F)(F)F)c2)o1 (stereo not drawn): > 800 nM
- O=C1Nc2ccccc2C(c2ccccc2)=N[C@@H]1Nc1nnc(-c2ncc(C(F)(F)F)cc2N2CCOc3ccccc32)o1: > 800 nM
- O=C1Nc2ccccc2C(c2ccccc2)=NC1Nc1nnc(-c2cc[nH]c(=O)c2)o1 (stereo not drawn): > 800 nM
- COCCn1nccc1-c1nnc(N[C@H]2N=C(c3ccccc3)c3ccccc3NC2=O)o1: > 800 nM
- O=C1Nc2ccccc2C(c2ccccc2)=NC1Nc1nnc(C2CC3(CCNCC3)C2)o1 (stereo not drawn): > 800 nM
- O=C(O)c1cnc(C(F)(F)F)nc1N1CCOCC1: < 400 nM
- O=C1Nc2ccccc2C(c2ccccc2)=NC1Nc1nnc(C2(F)CC2)o1 (stereo not drawn): > 800 nM
- O=C1Nc2ccccc2C(c2ccccc2)=NC1Nc1ncc(-c2ccccc2)o1 (stereo not drawn): > 800 nM
- O=C1Nc2ccccc2C(c2ccccc2)=N[C@@H]1Nc1nnc(-c2ncsc2C2=CCOCC2)o1: < 400 nM
- O=C1Nc2ccccc2C(c2ccccc2)=NC1Nc1nnc(-c2nc(Br)sc2N2CCOCC2)o1 (stereo not drawn): < 400 nM
- O=C1Nc2ccccc2C(c2ccccc2)=NC1Nc1nnc([C@@H]2CCCO2)o1 (stereo partly drawn): > 800 nM
- CCOC(=O)c1cn(CC)nc1N1CCOCC1: < 400 nM
- Cc1ccc(-c2nnc(N[C@H]3N=C(c4ccccc4)c4ccccc4NC3=O)o2)c(N2CC3CCC(C2)O3)n1: < 400 nM
- O=C1Nc2ccccc2C(c2ccccc2)=NC1Nc1nnc(C2CCC2)o1 (stereo not drawn): > 800 nM
- O=C1Nc2ccccc2C(c2ccccc2)=NC1Nc1nnc(-c2ccc(-n3ccnc3)nc2)o1 (stereo not drawn): > 800 nM

These entries and their values trace back to ChEMBL document CHEMBL5729210.
